Conditions: fish
reported property: log10 biotransformation half-life (days)

Form field log10 biotransformation half-life (days), entry Clc1c(Cl)c(Cl)c(-c2c(Cl)c(Cl)c(Cl)c(Cl)c2Cl)c(Cl)c1Cl : 2.86

Form field log10 biotransformation half-life (days), entry c1cc2ccc3cccc4ccc(c1)c2c34 : 0.32

Form field log10 biotransformation half-life (days), entry C=CCCCCCCCCCC : 0.83

Form field log10 biotransformation half-life (days), entry CCCCc1cc2ccccc2c2ccccc12 : 0.29

Form field log10 biotransformation half-life (days), entry COP(=S)(OC)Oc1ccc([N+](=O)[O-])c(C)c1 : 0.03

Form field log10 biotransformation half-life (days), entry Clc1ccc(Oc2cc(Cl)c(Cl)cc2Cl)cc1 : 1.93

Form field log10 biotransformation half-life (days), entry FC(F)(F)c1ccccc1 : -0.48

Form field log10 biotransformation half-life (days), entry CCOP(=S)(OCC)SCCSCC : 0.03

Form field log10 biotransformation half-life (days), entry c1ccc(COCc2ccccc2)cc1 : 0.63

Form field log10 biotransformation half-life (days), entry c1ccc2c(c1)Cc1ccccc1-2 : 0.7

Form field log10 biotransformation half-life (days), entry c1ccc2c(c1)Cc1cc3ccccc3cc1-2 : -0.39

Form field log10 biotransformation half-life (days), entry O=P(Oc1ccccc1)(Oc1ccccc1)Oc1ccccc1 : -0.76

Form field log10 biotransformation half-life (days), entry ClC(Cl)=C(Cl)c1c(Cl)c(Cl)c(Cl)c(Cl)c1Cl : 2.04

Form field log10 biotransformation half-life (days), entry COc1c(Cl)c(Cl)c(Cl)c(Cl)c1Cl : 2.67

Form field log10 biotransformation half-life (days), entry CCSC(=O)N1CCCCCC1 : -1.08

Form field log10 biotransformation half-life (days), entry Clc1cc2c(cc1Cl)Oc1c(cc(Cl)c(Cl)c1Cl)O2 : 1.56

Form field log10 biotransformation half-life (days), entry N#CSCSc1nc2ccccc2s1 : -1.01

Form field log10 biotransformation half-life (days), entry Cc1ccc(C)c(Cc2ccccc2)c1 : 0.45

Form field log10 biotransformation half-life (days), entry FC(F)(F)c1cccc(Cl)c1 : 0.64

Form field log10 biotransformation half-life (days), entry COP(=O)(OC)Oc1ccc([N+](=O)[O-])c(C)c1 : 0.01

Form field log10 biotransformation half-life (days), entry Cc1ccc2c(c1)CCCC2(C)C : 0.83

Form field log10 biotransformation half-life (days), entry CC(C)c1ccc2ccccc2c1 : 1

Form field log10 biotransformation half-life (days), entry O=[N+]([O-])c1ccc(Cl)cc1Cl : 0.83

Form field log10 biotransformation half-life (days), entry COc1nn(CSP(=S)(OC)OC)c(=O)s1 : -1.15

Form field log10 biotransformation half-life (days), entry c1ccc2c(c1)cc1ccc3cccc4ccc2c1c34 : 0.05

Form field log10 biotransformation half-life (days), entry Nc1ccc(Cl)cc1[N+](=O)[O-] : -0.96

Form field log10 biotransformation half-life (days), entry FC(F)C(F)(F)OCC(Cn1cncn1)c1ccc(Cl)cc1Cl (centres undefined) : 1.23

Form field log10 biotransformation half-life (days), entry Cc1ccc2cc3ccccc3cc2c1 : -0.02

Form field log10 biotransformation half-life (days), entry CCc1c(Br)c(Br)c(Br)c(Br)c1Br : 0.02

Data provenance is the OPERA property sets (Mansouri et al. 2018).
